ELISA reading overview
target: T1, soluble KDR extracellular domain (ECD) (Calbiochem) (human, UniProt P35968 20-764); assay: High Antigen ELISA, KDR coat 500 ng/mL, supernatant 1:675
T1 construct: extracellular domain; Bought protein; also called KDR-ECD; VEGF Receptor 2 D1-7, Cat. #676490
T1 sequence (P35968 20-764): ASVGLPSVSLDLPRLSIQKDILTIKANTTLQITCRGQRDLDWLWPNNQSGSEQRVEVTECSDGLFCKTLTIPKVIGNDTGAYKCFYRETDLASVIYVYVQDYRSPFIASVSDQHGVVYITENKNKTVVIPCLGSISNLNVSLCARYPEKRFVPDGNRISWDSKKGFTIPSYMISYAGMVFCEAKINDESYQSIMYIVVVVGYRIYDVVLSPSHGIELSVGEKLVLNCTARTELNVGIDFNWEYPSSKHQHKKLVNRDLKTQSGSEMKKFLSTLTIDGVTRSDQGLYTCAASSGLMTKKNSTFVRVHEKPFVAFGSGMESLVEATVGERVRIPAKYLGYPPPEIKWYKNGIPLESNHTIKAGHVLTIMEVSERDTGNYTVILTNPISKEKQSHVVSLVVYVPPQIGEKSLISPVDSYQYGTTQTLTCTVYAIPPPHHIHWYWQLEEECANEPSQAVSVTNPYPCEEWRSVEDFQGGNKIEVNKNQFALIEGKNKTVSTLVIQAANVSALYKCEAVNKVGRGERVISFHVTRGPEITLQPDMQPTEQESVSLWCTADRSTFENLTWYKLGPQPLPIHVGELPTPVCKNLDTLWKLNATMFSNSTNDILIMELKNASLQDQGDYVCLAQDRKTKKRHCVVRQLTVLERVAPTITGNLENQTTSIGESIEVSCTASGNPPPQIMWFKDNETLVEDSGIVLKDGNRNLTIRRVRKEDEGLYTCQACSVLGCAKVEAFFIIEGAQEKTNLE
Number only, no unit.

Worked set:
- binder: "30D7 (antibody, V domains shown, Fully human mAb from XenoMouse hybridoma, tested as hybridoma supernatant) VH: QVPLVESGGGVVQPGRSLRLSCAASGFTFSSYGMHWVRQAPGKGLEWVAVIWYDGSNKYYADSVKGRFTISRDNSKNTLYLQMNSLRAEDTAVYYCARGVTMVRGVIIARYYYGLDVWGQGTTVTVSS VL: DIVMTQTPLSSPVTLGQPASISCRSSQSLVHSDGNTYLSWLQQRPGQPPRLLIYKISNRFFGVPDRFSGSGAGTDFTLKIGRVEAEDVGLYYCMQSTQFPLTFGGGTKVEIK"
  ELISA reading: 4.24
- binder: "30A1 (antibody, V domains shown, Fully human mAb from XenoMouse hybridoma, tested as hybridoma supernatant) VH: QLQLQESGPGLVKPSETLSLTCTVSGGSISSPNYYWGWIRQPPGKGLEWIGTIYYSGNTFYNPSLKSRVTISVDTSKNQFSLKLSSVTAADTAVYYCATQQLVLYYFDFWGQGTLVTVSS VL: EIVLTQSPGTLSLSPGKRAALSCRASQSISSSYLAWYQQKPGQAPRLLIYGASSRATGIPDRFNGSGSGTDFTLTISRLEPEDFAVYYCQQLGSSITFGQGTRLEIK"
  ELISA reading: 4.28

Next up:
Entry 24B3 (antibody, V domains shown, Fully human mAb from XenoMouse hybridoma, tested as hybridoma supernatant) VH: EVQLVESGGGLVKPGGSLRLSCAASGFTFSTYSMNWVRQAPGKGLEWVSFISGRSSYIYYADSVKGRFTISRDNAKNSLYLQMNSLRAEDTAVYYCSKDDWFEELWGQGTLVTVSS VL: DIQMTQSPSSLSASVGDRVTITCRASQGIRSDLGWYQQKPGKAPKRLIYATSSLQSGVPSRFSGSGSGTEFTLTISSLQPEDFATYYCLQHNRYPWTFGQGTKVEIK has what ELISA reading?
0.79
